Entries and their EC50 values follow.
- TESTED SYSTEM: α5β2γ2 GABAA receptor (Homo sapiens, UniProt P18507+P31644)
- Sequence (P31644 32-462): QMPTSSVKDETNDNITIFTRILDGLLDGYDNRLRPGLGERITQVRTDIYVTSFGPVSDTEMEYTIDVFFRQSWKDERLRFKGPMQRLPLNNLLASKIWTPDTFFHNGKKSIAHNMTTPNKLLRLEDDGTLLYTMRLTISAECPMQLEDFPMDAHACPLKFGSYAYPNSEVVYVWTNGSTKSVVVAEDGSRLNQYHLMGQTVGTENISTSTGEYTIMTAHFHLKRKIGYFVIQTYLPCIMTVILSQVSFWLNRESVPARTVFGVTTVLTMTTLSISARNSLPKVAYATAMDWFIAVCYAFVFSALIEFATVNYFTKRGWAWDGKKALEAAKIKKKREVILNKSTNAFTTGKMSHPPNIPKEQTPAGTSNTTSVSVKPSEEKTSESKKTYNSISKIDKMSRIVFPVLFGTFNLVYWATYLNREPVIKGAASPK
- Sequence (P18507 40-376 limits assumed): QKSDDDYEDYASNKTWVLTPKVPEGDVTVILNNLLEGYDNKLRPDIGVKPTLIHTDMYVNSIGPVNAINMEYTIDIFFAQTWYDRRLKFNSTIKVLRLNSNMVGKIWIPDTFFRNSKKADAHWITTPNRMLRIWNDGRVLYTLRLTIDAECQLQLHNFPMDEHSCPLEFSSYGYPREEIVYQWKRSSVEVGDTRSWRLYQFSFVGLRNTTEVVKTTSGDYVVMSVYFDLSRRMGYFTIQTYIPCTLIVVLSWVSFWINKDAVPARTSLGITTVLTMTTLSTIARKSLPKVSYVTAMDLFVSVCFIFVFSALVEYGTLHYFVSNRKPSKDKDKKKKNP
- ASSAY REMARKS: Assay B: modulation of α5β2γ2 GABAA receptor, two-electrode voltage clamp in oocytes
- COND: oocytes, TEVC, co-application with GABA 0.5 μM (EC5-20); read-out: Assay B: GABAA α5β3γ2 EC50

>  <COMPOUND>
Cc1nnn(-c2ccc(C(F)F)cc2)c1COc1ccc(-c2cncc(-n3ccnc3)c2)nn1 [Example 8]

>  <EC50, nM>
17

$$$$
>  <COMPOUND>
CCn1cc(-c2ccc(OCc3c(C)nnn3-c3ccc(C(F)F)cc3)nn2)cn1 [Example 7]

>  <EC50, nM>
6

$$$$
>  <COMPOUND>
Cc1nnn(-c2ccc(C(F)F)cc2)c1COc1ccc(-c2cnccn2)nn1 [Example 13]

>  <EC50, nM>
9

$$$$
>  <COMPOUND>
Cc1nnn(-c2ccc(C(F)F)cc2)c1COc1ccc(-c2ccnc(O)c2)nn1 [Example 2]

>  <EC50, nM>
6

$$$$
>  <COMPOUND>
Cc1nnn(-c2ccc(C(F)F)cc2)c1COc1ccc(-n2cc(C#N)cn2)nn1 [Example 31]

>  <EC50, nM>
7.4

$$$$
>  <COMPOUND>
Cc1nnn(-c2ccc(C(F)F)cc2)c1COc1ccc(-n2cnc(C[N+](C)(C)C)c2)nn1.O=C([O-])C(F)(F)F [Example 36, trifluoroacetate]

>  <EC50, nM>
6.2

$$$$
>  <COMPOUND>
Cc1nnn(-c2ccc(C(F)F)cc2)c1COc1ccc(-n2cnc(S(C)(=O)=O)c2)nn1 [Example 19]

>  <EC50, nM>
7.7

$$$$
>  <COMPOUND>
Cc1nnn(-c2ccc(C(F)F)cc2)c1COc1ccc(-n2cnc(C(C)(C)O)c2)nn1 [Example 39]

>  <EC50, nM>
1.8

$$$$
>  <COMPOUND>
Cc1nnn(-c2ccc(C(F)F)cc2)c1COc1ccc(-n2ccc(C#N)n2)nn1 [Example 20]

>  <EC50, nM>
4.4

$$$$
>  <COMPOUND>
Cc1ncn(-c2ccc(OCc3c(C)nnn3-c3ccc(C(F)F)cc3)nn2)n1 [Example 33]

>  <EC50, nM>
11.2

$$$$
>  <COMPOUND>
Cc1ncc(-c2ccc(OCc3c(C)nnn3-c3ccc(C(F)F)cc3)nn2)o1 [Example 6]

>  <EC50, nM>
6.9

$$$$
>  <COMPOUND>
Cc1nnn(-c2ccc(C(F)F)cc2)c1COc1ccc(-c2cnn(C3CC3)c2)nn1 [Example 9]

>  <EC50, nM>
47.5

$$$$
>  <COMPOUND>
Cc1nnn(-c2ccc(C(F)F)cc2)c1COc1ccc(-n2cncn2)nn1 [Example 28]

>  <EC50, nM>
5.5

$$$$
>  <COMPOUND>
Cc1cc(-c2ccc(OCc3c(C)nnn3-c3ccc(C(F)F)cc3)nn2)cnn1 [Example 11]

>  <EC50, nM>
10.3

$$$$
>  <COMPOUND>
Cc1nnn(-c2ccc(C(F)F)cc2)c1COc1ccc(-n2cnc(C(N)=O)c2)nn1 [Example 27]

>  <EC50, nM>
0.4

$$$$
>  <COMPOUND>
COc1ncc(-c2ccc(OCc3c(C)nnn3-c3ccc(C(F)F)cc3)nn2)cn1 [Example 3]

>  <EC50, nM>
13.5

$$$$
